target system: mouse Mcl-1 with truncations of 151 amino acid residues at its N-terminus and 23 residues at its C-terminus (mouse) (UniProt P97287)
Sequence (P97287 152-308): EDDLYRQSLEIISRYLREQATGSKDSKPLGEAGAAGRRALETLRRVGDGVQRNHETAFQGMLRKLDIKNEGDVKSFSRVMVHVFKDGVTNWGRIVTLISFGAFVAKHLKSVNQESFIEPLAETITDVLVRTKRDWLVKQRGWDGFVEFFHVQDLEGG
assay info: competition phage ELISA
property: Fold/wt

Measured Fold/wt, PSSTMGQVGRQLAIAGDDINRRYDSE [Bak BH3 I15A, phage-displayed] : 25 fold

According to the records, this binder PSSTMGQVGRQLAIIGDDINRRYASE [Bak BH3 D24A, phage-displayed] displays Fold/wt of < 1 fold

Consider PSSTMGQVGRQAAIIGDDINRRYDSE [Bak BH3 L12A, phage-displayed] . Its measured Fold/wt is 20 fold

Fold/wt in this record for PSSTMGQVGRQLEIIGDDINRRYDSE [Bak BH3 A13E, phage-displayed] : 17 fold
